Target: human CD38 (Homo sapiens, UniProt P28907)
Sequence (P28907 1-300): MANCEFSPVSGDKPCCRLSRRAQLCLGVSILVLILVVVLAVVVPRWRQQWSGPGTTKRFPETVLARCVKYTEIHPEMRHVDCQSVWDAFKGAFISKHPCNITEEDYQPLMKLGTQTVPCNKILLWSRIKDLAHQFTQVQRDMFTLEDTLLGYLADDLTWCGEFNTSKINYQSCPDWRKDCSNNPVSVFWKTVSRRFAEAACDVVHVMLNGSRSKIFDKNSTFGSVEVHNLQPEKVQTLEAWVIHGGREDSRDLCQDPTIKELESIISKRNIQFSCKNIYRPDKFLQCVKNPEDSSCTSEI
Experiment: NAD+ cyclase activity assay with human recombinant CD38 protein (ε-NAD fluorescence)
Settings: 1.9 nM human CD38, substrate ε-NAD, 30 min preincubation, fluorescence 300/410 nm
measuredProperty: IC50

[[record]]
molecule = "O=C(N[C@@H]1CCCOC1)c1ccc2c(c1)-n1cncc1CCO2 [Compound 15A]"
measuredproperty = "IC50"
result = "> 1000 nM"

[[record]]
molecule = "COCCO[C@H]1CC[C@H](NC(=O)c2cc(Br)c3c(c2)-c2cncn2CCO3)CC1 [Compound 46A]"
measuredproperty = "IC50"
result = "< 30 nM"

[[record]]
molecule = "CN1CCOc2ncc(NC(=O)c3ccc4c(c3)-c3cncn3CCO4)cc21 [Compound 101A]"
measuredproperty = "IC50"
result = "< 30 nM"

[[record]]
molecule = "COCCO[C@H]1CC[C@H](NC(=O)c2cc(Cl)c3c(c2)-c2cncn2CCO3)CC1 [Compound 94A]"
measuredproperty = "IC50"
result = "< 30 nM"

[[record]]
molecule = "O=C(N[C@H]1CC[C@H](NC2CCC2(F)F)CC1)c1ccc2c(c1)-c1cncn1CCO2 (stereo partly drawn) [Compound 82A]"
measuredproperty = "IC50"
result = "< 30 nM"

[[record]]
molecule = "CC(C)(O)[C@H]1CC[C@H](NC(=O)c2ccc3c(c2)-c2cncn2CCO3)CC1 [Compound 58A]"
measuredproperty = "IC50"
result = "< 30 nM"

[[record]]
molecule = "O=C(NC1CCC1(F)F)c1cc(F)c2c(c1)-c1cncn1CCO2 (stereo not drawn) [Compound 140A]"
measuredproperty = "IC50"
result = "< 30 nM"

[[record]]
molecule = "O=C(N[C@H]1CC[C@@H](OCCC(F)F)CC1)c1ccc2c(c1)-c1cncn1CCO2 [Compound 77A]"
measuredproperty = "IC50"
result = "< 30 nM"

[[record]]
molecule = "CC(C)(F)CN[C@H]1CC[C@H](NC(=O)c2ccc3c(c2)-c2cncn2CCO3)CC1 [Compound 83A]"
measuredproperty = "IC50"
result = "100 to 1000 nM"

[[record]]
molecule = "O=C(Nc1cnc2c(c1)OCCO2)c1cc(Cl)c2c(c1)-c1cncn1CCO2 [Compound 129A]"
measuredproperty = "IC50"
result = "< 30 nM"

[[record]]
molecule = "O=C(N[C@H]1CC[C@@H](OCC2(C(F)(F)F)CC2)CC1)c1ccc2c(c1)-c1cncn1CCO2 [Compound 118A]"
measuredproperty = "IC50"
result = "> 1000 nM"

[[record]]
molecule = "O=C(NC1CCCC(F)(F)C1)c1ccc2c(c1)-c1cncn1CCO2 (stereo not drawn) [Compound 96A]"
measuredproperty = "IC50"
result = "< 30 nM"

[[record]]
molecule = "O=C(NC1CC2(COC2)C1)c1cc(F)c2c(c1)-c1cncn1CCO2 [Compound 160A]"
measuredproperty = "IC50"
result = "30 to 100 nM"

[[record]]
molecule = "O=C(NC1CCC(F)(F)CC1)c1cc(Cl)c2c(c1)-c1cncn1CCO2 [Compound 137A]"
measuredproperty = "IC50"
result = "< 30 nM"

[[record]]
molecule = "O=C(N[C@@H]1CCS(=O)(=O)C1)c1ccc2c(c1)-c1cncn1CCO2"
measuredproperty = "IC50"
result = "< 30 nM"

[[record]]
molecule = "O=C(N[C@H]1CC[C@H](OCC(F)(F)F)CC1)c1ccc2c(c1)-c1cncn1CCO2 [Compound 122A]"
measuredproperty = "IC50"
result = "< 30 nM"

[[record]]
molecule = "COCCOc1nc2cc(NC(=O)c3ccc4c(c3)-c3cncn3CCO4)ccc2s1 [Compound 45A]"
measuredproperty = "IC50"
result = "< 30 nM"

[[record]]
molecule = "CC(C1CCC(NC(=O)c2ccc3c(c2)-c2cncn2CCO3)CC1)C(F)(F)F (stereo not drawn) [Compound 133A]"
measuredproperty = "IC50"
result = "30 to 100 nM"

[[record]]
molecule = "CC(O)C1CCC(NC(=O)c2ccc3c(c2)-c2cncn2CCO3)CC1 (stereo not drawn) [Compound 126A]"
measuredproperty = "IC50"
result = "30 to 100 nM"

[[record]]
molecule = "O=C(N[C@H]1CC[C@H](C(=O)NCC(F)(F)F)CC1)c1ccc2c(c1)-c1cncn1CCO2 [Compound 61A]"
measuredproperty = "IC50"
result = "< 30 nM"

[[record]]
molecule = "O=C(N[C@H]1CC[C@@H](OC2CC(F)(F)C2)CC1)c1cc(F)c2c(c1)-c1cncn1CCO2 [Compound 167A]"
measuredproperty = "IC50"
result = "100 to 1000 nM"

[[record]]
molecule = "CC(C)(C)OC(=O)N1Cc2ccc(NC(=O)c3ccc4c(c3)-c3cncn3CCO4)cc2C1 [Compound 23A]"
measuredproperty = "IC50"
result = "30 to 100 nM"

[[record]]
molecule = "COCCO[C@H]1CC[C@H](NC(=O)c2ccc3[nH]c(=O)c4cncn4c3c2)CC1 [Compound 11A]"
measuredproperty = "IC50"
result = "> 1000 nM"

[[record]]
molecule = "O=C(N[C@@H]1CCS(=O)(=O)C1)c1cc(F)c2c(c1)-c1cncn1CCO2 [Compound 132A]"
measuredproperty = "IC50"
result = "< 30 nM"

[[record]]
molecule = "O=C(Nc1cnc2c(c1)OCCO2)c1ccc2c(c1)-c1cncn1CCO2 [Compound 31A]"
measuredproperty = "IC50"
result = "< 30 nM"

[[record]]
molecule = "CC1(F)CC(NC(=O)c2cc(F)c3c(c2)-c2cncn2CCO3)C1 (stereo not drawn) [Compound 138A]"
measuredproperty = "IC50"
result = "< 30 nM"

[[record]]
molecule = "O=C(Nc1ccc2nc[nH]c2c1)c1ccc2c(c1)-c1cncn1CCO2 [Compound 34A]"
measuredproperty = "IC50"
result = "< 30 nM"

[[record]]
molecule = "O=C(Nc1cnc(OCCC(F)F)nc1)c1ccc2c(c1)-c1cncn1CCO2 [Compound 103A]"
measuredproperty = "IC50"
result = "< 30 nM"

[[record]]
molecule = "CC(C)(CO[C@H]1CC[C@@H](NC(=O)c2ccc3c(c2)-c2cncn2CCO3)CC1)C(F)(F)F [Compound 121A]"
measuredproperty = "IC50"
result = "> 1000 nM"

[[record]]
molecule = "O=C(N[C@@H]1CCS(=O)(=O)C1)c1ccc2[nH]c(=O)c3cncn3c2c1 [Compound 12A]"
measuredproperty = "IC50"
result = "> 1000 nM"

[[record]]
molecule = "O=C(Nc1cnc(N2CC(F)(F)C2)nc1)c1ccc2c(c1)-c1cncn1CCO2 [Compound 99A]"
measuredproperty = "IC50"
result = "< 30 nM"

[[record]]
molecule = "CC(C)(N[C@H]1CC[C@H](NC(=O)c2ccc3c(c2)-c2cncn2CCO3)CC1)C(F)(F)F [Compound 88A]"
measuredproperty = "IC50"
result = "< 30 nM"

[[record]]
molecule = "C[C@@H]1CCC[C@H](C)[C@H]1NC(=O)c1cc(F)c2c(c1)-c1cncn1CCO2 [Compound 176A]"
measuredproperty = "IC50"
result = "< 30 nM"

